tested on: differentiated PAZ-6 human adipocytes; assay: Lipolysis assay (glycerol release) on the PAZ-6 line; assay type: cell-based; conditions: differentiated PAZ-6 adipocytes; 2 hours at 37° C.; forskolin 10^-4 M, other agonists 10^-5 M; catecholamines with or without phentolamine 20 μg/ml
Reported Property: lipolysis (glycerol generated relative to basal level, FIG. 4)

NC[C@H](O)c1ccc(O)c(O)c1 [norepinephrine]	lipolysis induced
C=C[C@@]1(C)CC(=O)[C@]2(O)[C@@]3(C)[C@@H](O)CCC(C)(C)[C@@H]3[C@H](O)[C@H](OC(C)=O)[C@@]2(C)O1	lipolysis induced
CNC[C@H](O)c1ccc(O)c(O)c1 [epinephrine]	lipolysis induced
